Target or system EGFR (human), P00533 [WT]; recorded quantity IC50.
readout-name: IC50

C=CC(=O)Nc1cccc(Oc2nc(Nc3ccc(N4CCC(N5CCCCC5)CC4)cc3)nc3ccsc23)c1; 100 to 1000 nM
C=CC(=O)Nc1cccc(Nc2nc(Nc3ccc(N4CCN(C)CC4)cc3)nc3ccsc23)c1; 100 to 1000 nM
